Values from ChEMBL document CHEMBL1159186

# Lookup of reported IC50 keyed by entry
# Target or system: Protein kinase C delta type (Homo sapiens)
# Sequence (Q05655 whole entry): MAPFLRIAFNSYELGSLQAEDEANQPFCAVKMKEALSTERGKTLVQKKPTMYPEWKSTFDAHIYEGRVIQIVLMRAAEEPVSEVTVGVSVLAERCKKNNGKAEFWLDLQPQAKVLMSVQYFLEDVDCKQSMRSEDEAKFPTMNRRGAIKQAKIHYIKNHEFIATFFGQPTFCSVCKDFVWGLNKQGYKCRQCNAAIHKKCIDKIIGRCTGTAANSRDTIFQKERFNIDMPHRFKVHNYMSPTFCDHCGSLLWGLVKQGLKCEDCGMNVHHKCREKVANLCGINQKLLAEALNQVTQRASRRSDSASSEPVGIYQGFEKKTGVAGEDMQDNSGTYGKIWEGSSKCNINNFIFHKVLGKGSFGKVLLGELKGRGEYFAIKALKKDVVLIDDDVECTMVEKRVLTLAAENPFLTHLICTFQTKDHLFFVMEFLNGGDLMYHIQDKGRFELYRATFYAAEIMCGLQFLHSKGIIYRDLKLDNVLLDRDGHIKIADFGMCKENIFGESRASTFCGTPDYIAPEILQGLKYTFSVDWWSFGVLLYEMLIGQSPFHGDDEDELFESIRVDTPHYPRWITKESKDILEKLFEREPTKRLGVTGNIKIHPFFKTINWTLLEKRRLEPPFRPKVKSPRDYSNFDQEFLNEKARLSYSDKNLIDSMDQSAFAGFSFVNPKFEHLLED
# Measurement description: Inhibition of serine/threonine kinase(PKC-delta)

{"Smiles string": "O=C(Nc1ccc(Cl)c(Nc2nccc(-c3cccnc3)n2)c1)c1ccccc1", "IC50": "> 100 µM"}
{"Smiles string": "Cc1ccc([N+](=O)[O-])cc1Nc1nccc(-c2cccnc2)n1", "IC50": "> 500 µM"}
{"Smiles string": "CNc1ccc(C)c(Nc2nccc(-c3cccnc3)n2)c1", "IC50": "> 100 µM"}
{"Smiles string": "Cc1ccc(N(C)C(=O)c2ccccc2)cc1Nc1nccc(-c2cccnc2)n1", "IC50": "> 100 µM"}
{"Smiles string": "Cc1ccc(C(=O)Nc2ccc(C)c(Nc3nccc(-c4cccnc4)n3)c2)cc1", "IC50": "> 500 µM"}

q: Reported IC50 for `COc1ccccc1C(=O)Nc1ccc(C)c(Nc2nccc(-c3cccnc3)n2)c1` : what is it?
a: > 500 µM

###

# Target or system: Protein kinase C delta type (Homo sapiens)
# Measurement description: Inhibition of serine/threonine kinase(PKC-delta)
Outcome measure: IC50

{"Smiles string": "Cc1ccc(NC(=O)c2ccccc2)cc1Nc1nccc(-c2cccs2)n1", "IC50": "> 100 µM"}

q: Reported IC50 for `Cc1ccc(N(C(=O)c2ccccc2)C(=O)c2ccccc2)cc1Nc1nccc(-c2cccnc2)n1` : what is it?
a: > 100 µM

q: Reported IC50 for `Cc1ccc(NC(=O)c2ccccc2)cc1Nc1nccc(-c2cccnc2)n1` : what is it?
a: > 500 µM

q: Reported IC50 for `Cc1ccc(NC(=O)c2ccc(Cl)cc2)cc1Nc1nccc(-c2cccnc2)n1` : what is it?
a: > 500 µM

q: Reported IC50 for `Cc1ccc(NC(=O)c2ccccc2)cc1Nc1nccc(-c2ccc[n+]([O-])c2)n1` : what is it?
a: > 100 µM

q: Reported IC50 for `Cc1ccc(N)cc1Nc1nccc(-c2cccnc2)n1` : what is it?
a: > 500 µM

q: Reported IC50 for `COc1ccc(NC(=O)c2ccccc2)cc1Nc1nccc(-c2cccnc2)n1` : what is it?
a: > 100 µM

q: Reported IC50 for `CC(=O)Nc1ccc(C)c(Nc2nccc(-c3cccnc3)n2)c1` : what is it?
a: > 500 µM

q: Reported IC50 for `O=C(Nc1cccc(Nc2nccc(-c3cccnc3)n2)c1)c1ccccc1` : what is it?
a: 23 µM

q: Reported IC50 for `Cc1ccc(NC(=O)c2ccc3ccccc3c2)cc1Nc1nccc(-c2cccnc2)n1` : what is it?
a: > 500 µM

###

# Target or system: Platelet-derived growth factor receptor (Homo sapiens, UniProt P09619+P16234)
# Measurement description: Inhibition of tyrosine kinase(PDGF-R)
Outcome measure: IC50 (nM)

Worked cases, IC50 given:
{"Smiles string": "O=C(Nc1cccc(Nc2nccc(-c3cccnc3)n2)c1)c1ccccc1", "Unit label": "nM", "IC50": 5000}
{"Smiles string": "Cc1ccc(NC(=O)c2ccc3ccccc3c2)cc1Nc1nccc(-c2cccnc2)n1", "Unit label": "nM", "IC50": 50}
{"Smiles string": "COc1ccccc1C(=O)Nc1ccc(C)c(Nc2nccc(-c3cccnc3)n2)c1", "Unit label": "nM", "IC50": 300}
{"Smiles string": "O=C(Nc1ccc(Cl)c(Nc2nccc(-c3cccnc3)n2)c1)c1ccccc1", "Unit label": "nM", "IC50": 150}
{"Smiles string": "Cc1ccc(C(=O)Nc2ccc(C)c(Nc3nccc(-c4cccnc4)n3)c2)cc1", "Unit label": "nM", "IC50": 10}

P = CC(=O)Nc1ccc(C)c(Nc2nccc(-c3cccnc3)n2)c1
Q = Cc1ccc(NC(=O)c2ccc(Cl)cc2)cc1Nc1nccc(-c2cccnc2)n1
q: Between the two listed entries P and Q , which has its IC50 at the higher number? Let me know the label of the one you choose.
a: P

###

# Lookup of reported IC50 keyed by entry
# Target or system: cAMP-dependent protein kinase (PKA) (Homo sapiens, UniProt P22694+P17612+P22612)
# Measurement description: Inhibition of serine/threonine kinase(PKA)
# Format: protein assay, Oryctolagus cuniculus

{"Smiles string": "Cc1ccc(NC(=O)c2ccc3ccccc3c2)cc1Nc1nccc(-c2cccnc2)n1", "IC50": "> 100 µM"}
{"Smiles string": "Cc1ccc(NC(=O)c2ccccc2)cc1Nc1nccc(-c2cccnc2)n1", "IC50": "> 500 µM"}
{"Smiles string": "Cc1ccc(N(C)C(=O)c2ccccc2)cc1Nc1nccc(-c2cccnc2)n1", "IC50": "> 500 µM"}
{"Smiles string": "Cc1ccc(NC(=O)c2ccccc2)cc1Nc1nccc(-c2ccc[n+]([O-])c2)n1", "IC50": "> 500 µM"}
{"Smiles string": "COc1ccc(NC(=O)c2ccccc2)cc1Nc1nccc(-c2cccnc2)n1", "IC50": "> 500 µM"}
{"Smiles string": "Cc1ccc(NC(=O)c2ccccc2)cc1Nc1nccc(-c2cccs2)n1", "IC50": "> 500 µM"}
{"Smiles string": "Cc1ccc([N+](=O)[O-])cc1Nc1nccc(-c2cccnc2)n1", "IC50": "> 500 µM"}
{"Smiles string": "Cc1ccc(NC(=O)c2ccc(Cl)cc2)cc1Nc1nccc(-c2cccnc2)n1", "IC50": "> 100 µM"}
{"Smiles string": "Cc1ccc(N(C(=O)c2ccccc2)C(=O)c2ccccc2)cc1Nc1nccc(-c2cccnc2)n1", "IC50": "> 500 µM"}
{"Smiles string": "CNc1ccc(C)c(Nc2nccc(-c3cccnc3)n2)c1", "IC50": "> 500 µM"}

q: Query IC50 on cAMP-dependent protein kinase (PKA) (Homo sapiens, UniProt P22694+P17612+P22612) for `O=C(Nc1ccc(Cl)c(Nc2nccc(-c3cccnc3)n2)c1)c1ccccc1`
a: > 500 µM

q: Query IC50 on cAMP-dependent protein kinase (PKA) (Homo sapiens, UniProt P22694+P17612+P22612) for `CC(=O)Nc1ccc(C)c(Nc2nccc(-c3cccnc3)n2)c1`
a: > 500 µM

q: Query IC50 on cAMP-dependent protein kinase (PKA) (Homo sapiens, UniProt P22694+P17612+P22612) for `Cc1ccc(N)cc1Nc1nccc(-c2cccnc2)n1`
a: > 500 µM

q: Query IC50 on cAMP-dependent protein kinase (PKA) (Homo sapiens, UniProt P22694+P17612+P22612) for `O=C(Nc1cccc(Nc2nccc(-c3cccnc3)n2)c1)c1ccccc1`
a: > 500 µM

q: Query IC50 on cAMP-dependent protein kinase (PKA) (Homo sapiens, UniProt P22694+P17612+P22612) for `Cc1ccc(C(=O)Nc2ccc(C)c(Nc3nccc(-c4cccnc4)n3)c2)cc1`
a: > 100 µM

q: Query IC50 on cAMP-dependent protein kinase (PKA) (Homo sapiens, UniProt P22694+P17612+P22612) for `COc1ccccc1C(=O)Nc1ccc(C)c(Nc2nccc(-c3cccnc3)n2)c1`
a: > 500 µM

###

Here we list molecules with their recorded IC50 when tested on Proto-oncogene tyrosine-protein kinase Src (Homo sapiens).
Sequence (P12931 2-536 limits assumed): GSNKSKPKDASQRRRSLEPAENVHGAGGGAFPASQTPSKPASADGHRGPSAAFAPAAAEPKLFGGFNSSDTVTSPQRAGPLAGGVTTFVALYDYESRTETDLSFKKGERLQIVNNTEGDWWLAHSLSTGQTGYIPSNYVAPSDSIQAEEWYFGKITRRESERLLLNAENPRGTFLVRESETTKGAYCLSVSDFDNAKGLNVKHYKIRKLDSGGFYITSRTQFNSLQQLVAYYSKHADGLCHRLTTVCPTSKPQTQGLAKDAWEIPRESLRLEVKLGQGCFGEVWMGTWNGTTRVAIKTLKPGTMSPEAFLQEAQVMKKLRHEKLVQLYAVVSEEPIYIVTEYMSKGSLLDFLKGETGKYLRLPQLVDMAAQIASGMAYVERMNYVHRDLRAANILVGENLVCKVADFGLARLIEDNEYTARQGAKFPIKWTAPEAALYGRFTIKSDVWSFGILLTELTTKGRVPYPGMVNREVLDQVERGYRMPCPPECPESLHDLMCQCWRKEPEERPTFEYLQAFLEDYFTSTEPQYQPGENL

{"Smiles string": "CC(=O)Nc1ccc(C)c(Nc2nccc(-c3cccnc3)n2)c1", "IC50": "> 100 µM"}
{"Smiles string": "Cc1ccc(NC(=O)c2ccccc2)cc1Nc1nccc(-c2cccs2)n1", "IC50": "> 100 µM"}
{"Smiles string": "O=C(Nc1cccc(Nc2nccc(-c3cccnc3)n2)c1)c1ccccc1", "IC50": "15.7 µM"}

q: Reported IC50 for `Cc1ccc([N+](=O)[O-])cc1Nc1nccc(-c2cccnc2)n1` : what is it?
a: > 100 µM

q: Reported IC50 for `Cc1ccc(C(=O)Nc2ccc(C)c(Nc3nccc(-c4cccnc4)n3)c2)cc1` : what is it?
a: > 100 µM

###

Here we list molecules with their recorded IC50 when tested on Protein kinase C alpha type (Homo sapiens, UniProt P17252).
Outcome measure: IC50 (µM)

{"Smiles string": "O=C(Nc1cccc(Nc2nccc(-c3cccnc3)n2)c1)c1ccccc1", "IC50 / µM": 1.2}

P = CNc1ccc(C)c(Nc2nccc(-c3cccnc3)n2)c1
Q = COc1ccc(NC(=O)c2ccccc2)cc1Nc1nccc(-c2cccnc2)n1
q: From the items above, decide which of P and Q has the lower IC50 reading. Let me know the label of the one you choose.
a: Q

###

# Target or system: Platelet-derived growth factor receptor (Homo sapiens, UniProt P09619+P16234)
# Measurement description: Inhibition of tyrosine kinase(PDGF-R)
# Lookup of reported IC50 keyed by entry

Worked cases, IC50 given:
{"Smiles string": "Cc1ccc(NC(=O)c2ccccc2)cc1Nc1nccc(-c2cccs2)n1", "IC50": "> 10 µM"}
{"Smiles string": "COc1ccc(NC(=O)c2ccccc2)cc1Nc1nccc(-c2cccnc2)n1", "IC50": "> 10 µM"}

q: Reported IC50 for `Cc1ccc(N)cc1Nc1nccc(-c2cccnc2)n1` : what is it?
a: > 10 µM
